protocol-conditions: octanol/water
Items are presented alongside their recorded logP.
Lab note: jot the number down without any unit.

# compound, logP
rows = [
    ("O=[N+]([O-])c1ccc2c(c1)C=CC2", 2.74),
]

[Q] Indicate the recorded logP value for this compound: O=[N+]([O-])c1ccc(F)c([N+](=O)[O-])c1
[A] 1.49

[Q] Tell me logP reported for Cc1ncc([N+](=O)[O-])n1CCO [METRONIDAZOLE]
[A] -0.02

[Q] Return value of logP for input O=[N+]([O-])c1cc(O)c2ccc3cccc4ccc1c2c34 , no commentary.
[A] 4.66

[Q] Indicate the recorded logP value for this compound: COc1ccc2c(c1)Cc1cc([N+](=O)[O-])ccc1-2
[A] 3.95

[Q] Please list logP recorded for the compound O=[N+]([O-])c1cc2cccnc2c2ncccc12
[A] 1.84

[Q] Return value of logP for input O=[N+]([O-])c1cc2ccccc2c2ccccc12 , no commentary.
[A] 4.23

[Q] Check the records and state logP for O=[N+]([O-])c1ccc2c(c1)Oc1ccccc1O2
[A] 4.73

[Q] Read off the recorded logP for Nc1ccc2c(c1)Cc1cc([N+](=O)[O-])ccc1-2
[A] 3.06

----------
procedure-summary: Partition coefficient (logP)
protocol-conditions: octanol/water
readout-type: logP
API note: the answer field is a bare number with no unit suffix.

# compound, logP
measured = [
    ("Nc1ccc2ccc3ccc([N+](=O)[O-])c4ccc1c2c34", 3.63),
    ("O=[N+]([O-])C1=CC2Nc3cc([N+](=O)[O-])ccc3NC2C=C1 (configuration not stated)", 2.29),
    ("O=[N+]([O-])c1ccc2ccc3c4c(cc5ccc1c2c53)C(O)C(O)C=C4 (configuration not stated)", 3.01),
    ("Nc1ccc([N+](=O)[O-])cc1N", 0.88),
    ("O=[N+]([O-])c1cccc2ccccc12", 3.19),
]

[Q] Fill in reported logP for this entry: O=[N+]([O-])c1ccc2cc3ccccc3cc2c1
[A] 4.23

[Q] Give logP for O=[N+]([O-])c1ccc2c(ccc3c4ccccc4ccc23)c1
[A] 5.41

[Q] Please report the measured logP for O=[N+]([O-])c1ccc2ccc3c([N+](=O)[O-])cc([N+](=O)[O-])c4ccc1c2c34
[A] 4.18

[Q] Specify logP for O=[N+]([O-])c1cc2c3c(c1)CCc1cccc(c1-3)CC2 and stop.
[A] 5.28

[Q] Indicate its recorded logP; the compound in question is Cc1cc(-c2ccccc2)ccc1[N+](=O)[O-]
[A] 3.99

[Q] Identify measured logP corresponding to O=C1Nc2ccc([N+](=O)[O-])cc2C1=O
[A] 0.47

[Q] Please look at this compound and report its logP: O=[N+]([O-])c1ccc2ccc3ccc(O)c4ccc1c2c34
[A] 4.19

[Q] Dear colleague, please send me the reported logP for O=[N+]([O-])c1ccc2c(c1)Cc1cc(O)ccc1-2 when you can.
[A] 3.43

[Q] Report logP for O=[N+]([O-])c1c2ccccc2cc2c3c(ccc12)C(O)C(O)C=C3 (configuration not stated)
[A] 2.55

[Q] Return value of logP for input O=[N+]([O-])c1ccc2ccc3cc4c(c5ccc1c2c35)CCCC4 , no commentary.
[A] 6.57

----------
procedure-summary: Partition coefficient (logP)
protocol-conditions: octanol/water
Decide using logP alone. Strictly below 4: t. Equal to or above 4: f.

Study these solved cases before continuing.
# compound, classification
data = [
    ("O=[N+]([O-])C1=Cc2ccc3ccc4cccc5cc1c2c3c45", "f"),
    ("O=[N+]([O-])c1nc2ccccc2[nH]1", "t"),
    ("O=[N+]([O-])c1cc2ccccc2c2ccc3ccccc3c12", "f"),
    ("O=[N+]([O-])c1ccc2c(c1)Cc1cc(Br)ccc1-2", "f"),
    ("O=[N+]([O-])c1ccc2c(c1)-c1ccc([N+](=O)[O-])c3cccc-2c13", "f"),
    ("O=[N+]([O-])c1cccc2cn[nH]c12", "t"),
]

[Q] Strictly below 4: is that where logP of Nc1ccccc1-c1cccc([N+](=O)[O-])c1 sits?
[A] t

[Q] # strict comparison: is reported logP < 4? input = O=[N+]([O-])c1ccc(-c2ccc([N+](=O)[O-])cc2)cc1
[A] t

[Q] Please indicate whether the reported logP of O=[N+]([O-])c1ccc2c(c1)Cc1cccc([N+](=O)[O-])c1-2 is strictly below 4.
[A] t

[Q] State whether 4 exceeds logP recorded for O=[N+]([O-])c1ccc(F)cc1F .
[A] t

[Q] Please state whether logP is below 4 for O=C(Nc1ccc2c(c1)Cc1cc([N+](=O)[O-])ccc1-2)C(F)(F)F
[A] f
